Entries and their measured normalized area under the dose-response curve follow.
system: OCI-MY5 (cancer type: MM); experiment: normalized area under the dose-response curve (viability relative to DMSO control) (fraction); higher = less sensitive (more viable cells); conditions: exposure time not given
Would you mind answering with just the numeric figure?

MOLECULE: Nc1cccc2c1CN(C1CCC(=O)NC1=O)C2=O (stereo not drawn) [Lenalidomide]
TARGET OR TEST SYSTEM: OCI-MY5 (cancer type: MM)
ASSAY RESULT: 0.786

MOLECULE: CC(C)C[C@H](NC(=O)[C@H](Cc1ccccc1)NC(=O)c1cnccn1)B(O)O
TARGET OR TEST SYSTEM: OCI-MY5 (cancer type: MM)
ASSAY RESULT: 0.116

MOLECULE: COc1cc2nccc(Oc3ccc(NC(=O)NC4CC4)c(Cl)c3)c2cc1C(N)=O
TARGET OR TEST SYSTEM: OCI-MY5 (cancer type: MM)
ASSAY RESULT: 0.84

MOLECULE: Nc1nc(Cl)nc2c1ncn2[C@H]1C[C@H](O)[C@@H](CO)O1
TARGET OR TEST SYSTEM: OCI-MY5 (cancer type: MM)
ASSAY RESULT: 0.929

MOLECULE: Cc1nc(Nc2ncc(C(=O)Nc3c(C)cccc3Cl)s2)cc(N2CCN(CCO)CC2)n1
TARGET OR TEST SYSTEM: OCI-MY5 (cancer type: MM)
ASSAY RESULT: 0.701

*Q* Find the recorded normalized area under the dose-response curve belonging to `COC(=O)c1ccc2c(c1)NC(=O)/C2=C(\Nc1ccc(N(C)C(=O)CN2CCN(C)CC2)cc1)c1ccccc1` and report it.
*A* 0.846

*Q* Find the recorded normalized area under the dose-response curve belonging to `COc1cc(Nc2ncc3c(n2)-c2ccc(Cl)cc2C(c2c(F)cccc2OC)=NC3)ccc1C(=O)O` and report it.
*A* 0.881

*Q* Find the recorded normalized area under the dose-response curve belonging to `COc1cc(Nc2c(C#N)cnc3cc(OCCCN4CCN(C)CC4)c(OC)cc23)c(Cl)cc1Cl` and report it.
*A* 0.39
